Sourced from PubChem BioAssay (NCI)

System: HCT-116 colon
Assay: NCI tumour cell line growth inhibition, 48 h
Listed here are molecules together with their documented TGI.
ENDPOINT: TGI (µM)

• Oc1c(Cl)c(Cl)c(O)c(CCNc2nccs2)c1Cl = 23.6
• COc1ccc(C2CC(c3ccc4ccccc4c3)=NN2c2nc(O)c(C3=c4cc(OC)ccc4=NC3=O)s2)cc1 (centres undefined) = 0.66
• CC[C@@H]1CC[C@@H]2[C@H](CC[C@]3(C)[C@@H](OC(C)=O)CC[C@@H]23)[C@H]1C(=O)OC = 33.7
• CCCCN(CC)CCCCCCCCCCN1CCCc2cc(OC)ccc21 = 3.63

---

Tested on: MCF7 breast
Assay: NCI tumour cell line growth inhibition, 48 h
ENDPOINT: TGI

• O=C(NCCc1ccccc1)c1cc(/C=C/c2cc(O)ccc2O)ccc1O = 9.42 µM
• Cc1cnc2c(c1)C(=O)N(c1ccc([N+](=O)[O-])cc1)S2(=O)=O = > 100 µM
• CC1(C)SCc2nc3ccccc3n21 = > 100 µM
• COC(=O)[C@]1(C)CCC[C@]2(C)[C@@H](CCC(=O)C(C)C)[C@]3(C=O)O[C@@H]3C[C@H]21 = > 100 µM
• Cc1cc(C)c(S(=O)(=O)N(CCCN)OCCON(CCCN)S(=O)(=O)c2c(C)cc(C)cc2C)c(C)c1 = > 100 µM
• COc1ccccc1N1C(=O)CSC1c1cc(OC)c(OC)c(OC)c1 (stereo not given) = > 100 µM
• CC(=O)N=c1ccc2nc(N)nn(O)c-2c1 = > 100 µM
• O=c1[nH]c(F)nc2c1ncn2C1OC(CO)C(O)C1O (stereo not given) = > 100 µM
• CCCNCC(O)CNc1ccc(NCC(O)CNCCC)c2c1C(=O)c1ccccc1C2=O (stereo not given) = 7.5 µM
• CC(C)CC(NC=O)C(=O)NC(Cc1ccccc1)NC(=O)CNC(=O)C(C)NC(=O)C(N)Cc1ccc(O)cc1 (stereo not given) = > 100 µM
